Target chain: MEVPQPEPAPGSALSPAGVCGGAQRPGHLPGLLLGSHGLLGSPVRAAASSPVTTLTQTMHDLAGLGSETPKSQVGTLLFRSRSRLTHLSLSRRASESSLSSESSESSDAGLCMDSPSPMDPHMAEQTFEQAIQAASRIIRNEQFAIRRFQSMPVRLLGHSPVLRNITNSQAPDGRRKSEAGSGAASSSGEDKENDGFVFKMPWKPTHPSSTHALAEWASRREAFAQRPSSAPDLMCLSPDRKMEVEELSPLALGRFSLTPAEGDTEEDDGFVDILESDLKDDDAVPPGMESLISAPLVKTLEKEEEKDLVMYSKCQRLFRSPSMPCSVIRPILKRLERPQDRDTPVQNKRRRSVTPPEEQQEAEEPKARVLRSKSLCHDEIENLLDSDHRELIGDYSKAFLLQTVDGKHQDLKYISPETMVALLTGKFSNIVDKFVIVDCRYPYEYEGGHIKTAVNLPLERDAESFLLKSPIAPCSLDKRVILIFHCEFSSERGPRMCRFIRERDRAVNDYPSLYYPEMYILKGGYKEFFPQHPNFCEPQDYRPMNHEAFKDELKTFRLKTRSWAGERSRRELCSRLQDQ
Below are IC50 measurements against the protein given by its sequence drawn from the literature.
Please state the figure in µM; there is no need to write the unit.

Here's what some known entries look like.
Task: Could you tell me which IC50 is on file for O=C(O)[C@@H]1Cc2cc(I)c(OCc3ccc(Cl)cc3Cl)c(I)c2CN1C(=O)/C=C/c1ccccc1Br ?
Output: 33

Task: IC50 for CO[C@H]1O[C@H](Cn2cc(COC[C@H](NC(=O)OC(C)(C)C)C(=O)O)nn2)[C@@H](OCc2ccccc2)[C@H](OCc2ccccc2)[C@H]1OCc1ccccc1 ?
Output: 67.5

Task: Need IC50, item CC(C)CCC[C@@H](C)[C@H]1CCC2[C@@](C)(COP(=O)(O)O)CCC[C@@]21C (stereo not given in full)
Output: 3.7

Here is another compound to look at.
Task: What value of IC50 has been reported for the following compound? CC(=O)O[C@@]1(C)CCC(C)CCC[C@]2(C)[C@@H]([C@H](C)CCCC(C)C)CC[C@H]2c2ccc(cc2C)C1 (stereo not given in full)
Output: 11
